Values compiled from the supplement of paper PMC13380429.

Test system: Vero E6 infected with SARS-CoV-2
Assay: inhibition of SARS-CoV-2 cytopathic effect; higher = more antiviral protection, active = above 15
Conditions: 100 nM; 48 h
readoutType: inhibition of SARS-CoV-2 cytopathic effect (%)
The answer is to be given in %; state only the numeric part.

Req: Item under review: "COCCOCCOc1ccc(C2=N[C@@](C)(C(=O)O)CS2)c(O)c1" . Reported inhibition of SARS-CoV-2 cytopathic effect?
Resp: 1.19

Req: Item under review: "COc1ccc(CN(CCN(C)C)c2ccccn2)cc1" . Reported inhibition of SARS-CoV-2 cytopathic effect?
Resp: -1.11

Req: Item under review: "N=C(N)NCCC[C@H](N)C(=O)O" . Reported inhibition of SARS-CoV-2 cytopathic effect?
Resp: -3.93

Req: Item under review: "CCNC1(C(N)=O)CCN(c2ncnc3c2nc(-c2ccccc2Cl)n3-c2ccc(Cl)cc2)CC1" . Reported inhibition of SARS-CoV-2 cytopathic effect?
Resp: 1.6

Req: Item under review: Cn1nnc2c(C(N)=O)ncn2c1=O [temozolomide] . Reported inhibition of SARS-CoV-2 cytopathic effect?
Resp: -0.92

Req: Item under review: "CN(C)CCCN1c2ccccc2CCc2ccccc21" . Reported inhibition of SARS-CoV-2 cytopathic effect?
Resp: -1.33

Req: Item under review: "CC(C)=CC[C@@H](O)C1=CC(=O)c2c(O)ccc(O)c2C1=O" . Reported inhibition of SARS-CoV-2 cytopathic effect?
Resp: 0.38

Req: Item under review: "CC(=O)c1cc([N+](=O)[O-])c(Sc2ccc(F)cc2F)s1" . Reported inhibition of SARS-CoV-2 cytopathic effect?
Resp: 0.23

Req: Item under review: "O=C1Nc2ccccc2C2(CCN(CCc3ccc(C(F)(F)F)cc3)CC2)O1" . Reported inhibition of SARS-CoV-2 cytopathic effect?
Resp: -1.41

Req: Item under review: "CCc1cc2c(cc1CC)CC(NC[C@H](O)c1ccc(O)c3[nH]c(=O)ccc13)C2" . Reported inhibition of SARS-CoV-2 cytopathic effect?
Resp: -0.83

###

System: Vero E6 infected with SARS-CoV-2
Assay: morphology score (similarity to uninfected cells); higher = more like uninfected cells
Details: 24 h
Hi there, I'd appreciate the recorded morphology score for every entry that follows.
// keep it numeric: no unit symbol after the value

Req: Item under review: CCN(CC)CCOC(=O)c1ccc(N)cc1 [procaine] (10 µM) . Reported morphology score?
Resp: -0.107

Req: Item under review: CC(=O)[C@@]1(O)CC[C@H]2[C@@H]3C[C@H](C)C4=CC(=O)C=C[C@]4(C)[C@@]3(F)[C@@H](O)C[C@@]21C [fluorometholone] (10 µM) . Reported morphology score?
Resp: 0.02

Req: Item under review: CCOC(=S)SSC(=S)OCC [dixanthogen] (10 µM) . Reported morphology score?
Resp: -0.0377

Req: Item under review: OC[C@H]1O[C@H]([S-])[C@H](O)[C@@H](O)[C@@H]1O.[Au+] [aurothioglucose] (10 µM) . Reported morphology score?
Resp: -0.0654

Req: Item under review: COc1ccc(-c2cc(=O)c3c(O)c(OC)c(O)cc3o2)cc1OC [eupatilin] (10 µM) . Reported morphology score?
Resp: -0.0115

Req: Item under review: Cc1c(O)c(=O)ccn1C [deferiprone] (10 µM) . Reported morphology score?
Resp: -0.123

Req: Item under review: CC(C)(N)CC12CC3CC(CC(C3)C1)C2 [somantadine] (10 µM) . Reported morphology score?
Resp: 0.178

Req: Item under review: Cn1cncc1[C@@](N)(c1ccc(Cl)cc1)c1ccc2c(c1)c(-c1cccc(Cl)c1)cc(=O)n2C [tipifarnib] (0.833333 µM) . Reported morphology score?
Resp: 0.398

Req: Item under review: COc1ccccc1OCC(O)COC(N)=O (centres undefined) [methocarbamol] (10 µM) . Reported morphology score?
Resp: 0.0924

Req: Item under review: C[C@]12CC[C@@H]3c4ccc(O)cc4C[C@@H](CCCCCCCCC[S+]([O-])CCCC(F)(F)C(F)(F)F)[C@H]3[C@@H]1CC[C@@H]2O (some centres undefined) [fulvestrant] (10 µM) . Reported morphology score?
Resp: -0.187

Req: Item under review: CCCCCCCCCC(=O)O[C@H]1CC[C@H]2[C@@H]3CCC4=CC(=O)CC[C@@H]4[C@H]3CC[C@]12C [Nandrolone decanoate] (10 µM) . Reported morphology score?
Resp: -0.019

Req: Item under review: CC(C)C[C@@H](C(=O)N[C@H](C(=O)OC1CCCC1)c1ccccc1)[C@H](O)C(=O)NO [tosedostat] (10 µM) . Reported morphology score?
Resp: 0.243

Req: Item under review: OCc1ccccc1O[C@@H]1O[C@H](CO)[C@@H](O)[C@H](O)[C@H]1O [salicin] (10 µM) . Reported morphology score?
Resp: 0.153

Req: Item under review: Cc1cc(C)nc(SCC(=O)Nc2ncc(Cc3cccc4ccccc34)s2)n1 (10 µM) . Reported morphology score?
Resp: 0.211

Req: Item under review: N#CC(c1ccccc1)(c1ccccc1)c1ccccc1Cl (10 µM) . Reported morphology score?
Resp: 0.164

Req: Item under review: Cc1oc(=O)oc1COC(=O)C1=C([C@H]2CCCO2)S[C@@H]2[C@@H]([C@@H](C)O)C(=O)N12 [faropenem-medoxomil] (10 µM) . Reported morphology score?
Resp: -0.119

Req: Item under review: CCn1c2ccccc2c2cc(CNCc3ccccc3OC)ccc21 (10 µM) . Reported morphology score?
Resp: 0.26

Req: Item under review: CC(Oc1ccc(O)cc1)(P(=O)(O)O)P(=O)(O)O (10 µM) . Reported morphology score?
Resp: 0.0418

Req: Item under review: NC(=O)C1=CN([C@@H]2O[C@H](COP(=O)(O)OP(=O)(O)OC[C@H]3O[C@@H](n4cnc5c(N)ncnc54)[C@H](OP(=O)(O)O)[C@@H]3O)[C@@H](O)[C@H]2O)C=CC1 (10 µM) . Reported morphology score?
Resp: -0.0816

Req: Item under review: Oc1cc2c(cc1O)CN(C(=S)NCCc1ccc(Cl)cc1)CCC2 [capsazepine] (10 µM) . Reported morphology score?
Resp: -0.103

Req: Item under review: COc1ccc(C(=O)c2ccccc2)c(O)c1 [oxybenzone] (10 µM) . Reported morphology score?
Resp: 0.131

Req: Item under review: CN1CCN(c2cccc3[nH]c(=O)oc23)CC1 [pardoprunox] (10 µM) . Reported morphology score?
Resp: -0.1

Req: Item under review: CC1(C)S[C@@H]2[C@H](NC(=O)[C@H](N)c3ccc(O)cc3)C(=O)N2[C@H]1C(=O)O [amoxicillin] (10 µM) . Reported morphology score?
Resp: -0.146

Req: Item under review: CC(C)(Oc1ccc(C2CC2(Cl)Cl)cc1)C(=O)O (centres undefined) [ciprofibrate] (10 µM) . Reported morphology score?
Resp: -0.0908

Req: Item under review: COc1cc(C(=S)N2CCOCC2)cc(OC)c1OC [sulmetozine] (10 µM) . Reported morphology score?
Resp: 0.0452

Req: Item under review: CCC(=O)Nc1cccc(Oc2nc(Nc3ccc(N4CCN(C)CC4)cc3OC)ncc2Cl)c1 (10 µM) . Reported morphology score?
Resp: 0.0191

Req: Item under review: CNC(=N)NC(=O)Nc1c(C)cccc1C [lidamidine] (10 µM) . Reported morphology score?
Resp: -0.327

Req: Item under review: CCCSc1ccc2[nH]c(NC(=O)OC)nc2c1 [albendazole] (0.833333 µM) . Reported morphology score?
Resp: 0.0557

Req: Item under review: CC(Cc1ccccc1)NCCC(c1ccccc1)c1ccccc1 (centres undefined) [prenylamine] (10 µM) . Reported morphology score?
Resp: 0.878

Req: Item under review: O=C(Nc1ccccc1)OCC(CN1CCCCC1)OC(=O)Nc1ccccc1 (centres undefined) [diperodon] (10 µM) . Reported morphology score?
Resp: -0.0894

Req: Item under review: Cc1ccc(CCCO)c(NCc2ccc3nc(NCCCN4CCOCC4)n(Cc4nc(C)ccc4O)c3c2)c1 (10 µM) . Reported morphology score?
Resp: 0.227

Req: Item under review: CN(C)Cc1c(C(=O)NCCOc2ccc(C(=O)NO)cc2)oc2ccccc12 (10 µM) . Reported morphology score?
Resp: -0.197

Req: Item under review: CN(Cc1cc(Br)cc(Br)c1N)C1CCCCC1 [bromhexine] (10 µM) . Reported morphology score?
Resp: -0.0228

Req: Item under review: Clc1ccc([C@]23CNC[C@H]2C3)cc1Cl [amitifadine] (10 µM) . Reported morphology score?
Resp: 0.0575
